# targetEntity: GCN2 kinase (Homo sapiens, UniProt Q9P2K8)
# Sequence (Q9P2K8 whole entry): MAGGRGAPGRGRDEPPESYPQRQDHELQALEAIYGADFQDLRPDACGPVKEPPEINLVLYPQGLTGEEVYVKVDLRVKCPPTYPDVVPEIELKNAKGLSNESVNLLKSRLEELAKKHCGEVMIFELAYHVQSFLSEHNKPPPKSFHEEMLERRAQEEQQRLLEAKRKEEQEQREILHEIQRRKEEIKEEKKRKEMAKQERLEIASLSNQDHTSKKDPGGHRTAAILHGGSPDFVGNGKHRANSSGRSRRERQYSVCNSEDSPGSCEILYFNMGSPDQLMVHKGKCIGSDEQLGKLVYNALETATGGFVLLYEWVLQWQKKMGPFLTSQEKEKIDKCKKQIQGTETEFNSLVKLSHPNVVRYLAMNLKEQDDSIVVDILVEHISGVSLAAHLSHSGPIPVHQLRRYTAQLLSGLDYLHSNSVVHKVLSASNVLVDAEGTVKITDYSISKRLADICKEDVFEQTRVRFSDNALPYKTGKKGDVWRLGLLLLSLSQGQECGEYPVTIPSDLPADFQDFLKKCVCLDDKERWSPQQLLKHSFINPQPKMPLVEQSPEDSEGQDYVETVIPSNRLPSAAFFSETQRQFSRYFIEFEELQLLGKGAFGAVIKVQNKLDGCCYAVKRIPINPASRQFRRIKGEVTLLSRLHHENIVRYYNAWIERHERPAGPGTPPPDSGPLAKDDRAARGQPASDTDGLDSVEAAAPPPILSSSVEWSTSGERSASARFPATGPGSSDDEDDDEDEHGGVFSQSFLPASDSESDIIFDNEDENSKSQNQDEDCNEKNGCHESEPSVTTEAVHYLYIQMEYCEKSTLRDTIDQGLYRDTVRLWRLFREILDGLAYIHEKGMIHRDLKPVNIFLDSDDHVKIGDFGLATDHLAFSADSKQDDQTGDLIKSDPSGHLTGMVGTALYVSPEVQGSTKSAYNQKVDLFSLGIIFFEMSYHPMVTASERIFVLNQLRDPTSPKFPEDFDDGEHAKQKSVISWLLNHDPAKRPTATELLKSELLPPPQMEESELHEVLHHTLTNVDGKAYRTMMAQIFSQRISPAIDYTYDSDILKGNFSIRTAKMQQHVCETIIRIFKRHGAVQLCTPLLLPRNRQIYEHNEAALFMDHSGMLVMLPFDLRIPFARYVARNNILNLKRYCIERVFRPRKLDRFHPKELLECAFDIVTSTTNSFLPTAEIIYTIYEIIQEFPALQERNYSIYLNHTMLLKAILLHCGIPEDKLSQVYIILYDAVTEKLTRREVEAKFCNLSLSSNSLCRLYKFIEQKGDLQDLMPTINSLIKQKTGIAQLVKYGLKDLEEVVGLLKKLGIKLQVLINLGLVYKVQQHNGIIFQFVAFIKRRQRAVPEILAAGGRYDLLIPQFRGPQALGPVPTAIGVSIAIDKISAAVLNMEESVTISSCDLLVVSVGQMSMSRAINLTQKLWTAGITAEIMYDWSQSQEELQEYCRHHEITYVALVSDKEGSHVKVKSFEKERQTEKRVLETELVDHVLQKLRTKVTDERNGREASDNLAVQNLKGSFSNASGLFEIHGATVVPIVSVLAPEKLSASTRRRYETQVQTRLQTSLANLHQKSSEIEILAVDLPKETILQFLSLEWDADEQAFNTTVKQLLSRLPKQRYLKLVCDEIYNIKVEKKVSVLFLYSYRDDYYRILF
# assayComment: GCN2 enzyme inhibition assay (Transcreener ADP2 fluorescence polarization)
# Type: biochemical
# conditionSummary: Enzyme activity for compounds of Formula IV; Ki(app), 280 μM ATP, 25° C.
testReadout: Ki

The following molecules have reported results that may help.
molecule="COC1CC(c2cn[nH]c2)CN(c2ccnc(-c3cnc4cnc(C(F)(F)F)cn34)n2)C1 (centres unmarked)" assayresult="< 10 nM"
molecule=CC(=O)NC1CCN(c2ccnc(-c3cnc4cnc(C(N)=O)cn34)n2)CC1 assayresult="10 to 100 nM"
molecule="FC(F)OC1CC(c2cn[nH]c2)CN(c2ccnc(-c3cnc4cnc(C(F)(F)F)cn34)n2)C1 (centres unmarked) [IV-472]" assayresult="10 to 100 nM"
molecule="C[C@H]1CCCCN1c1ccnc(-c2cnc3cnc(C(F)(F)F)cn23)n1 (single isomer, unassigned)" assayresult="10 to 100 nM"

# Ki lookup, item FC(F)(F)c1cn2c(-c3nccc(N4CCN5CCOCC5C4)n3)cnc2cn1 (centres unmarked)
100 to 1000 nM

# input molecule: CC1CN(c2cccc(-c3cnc4cnc(C(F)(F)F)cn34)n2)C(C)C(c2cn[nH]c2)N1 (centres unmarked) ; wanted: its Ki
< 10 nM

May I ask what Ki has been recorded for Cc1[nH]ncc1C1CCCN(c2ccnc(-c3cnc4cnc(C(F)(F)F)cn34)n2)C1 (single isomer, unassigned) [IV-471] ?
10 to 100 nM

Endpoint output: Ki of Cc1[nH]ncc1C1NC(C)CN(c2ccnc(-c3cnc4cnc(Cl)cn34)n2)C1C (single isomer, unassigned) [IV-283] . Value?
100 to 1000 nM
